All values here come from paper PMC10853903.

EXPERIMENTAL_TARGET: agglutinin 120 from Ricinus communis (RCA120) (Ricinus communis)
MEASUREMENT_NAME: pKd
# reply with the number alone; pKd is -log10 of concentration in mol/L

Record summary for CO[C@@H]1O[C@H](CO)[C@H](O)[C@H](O)[C@H]1O [methyl-β-D-galactoside] : reported pKd = 3.57
